Target: Histamine H2 receptor (Homo sapiens, UniProt P25021); also: in other assays of this panel Not Active means under 50% inhibition at 10 µM
Sequence (P25021 whole entry): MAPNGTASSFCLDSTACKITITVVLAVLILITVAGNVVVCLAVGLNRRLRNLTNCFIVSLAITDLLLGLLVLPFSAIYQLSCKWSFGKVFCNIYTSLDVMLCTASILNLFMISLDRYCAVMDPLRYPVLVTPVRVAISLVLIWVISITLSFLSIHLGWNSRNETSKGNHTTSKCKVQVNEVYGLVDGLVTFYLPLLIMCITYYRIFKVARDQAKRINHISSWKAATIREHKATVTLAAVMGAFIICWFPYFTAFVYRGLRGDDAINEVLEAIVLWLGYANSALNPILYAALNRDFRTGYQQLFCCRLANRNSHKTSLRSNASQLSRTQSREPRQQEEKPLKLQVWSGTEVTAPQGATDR
Assay type: cell membranes, CHO-K1, Membrane
Details: cho-k1
Metric name: IC50

Observe how each entry below is paired with its result.
{"Compound": "O=C1OCCN1/N=C/c1ccc([N+](=O)[O-])o1 [FURAZOLIDONE]", "Obs value": "Not Active"}
{"Compound": "CCCC[C@@H](CC)COC(=O)c1ccccc1C(=O)OC[C@@H](CC)CCCC [BIS(2-ETHYLHEXYL)PHTHALATE]", "Obs value": "Not Active"}
{"Compound": "CCC1(c2ccccc2)C(=O)NCNC1=O [PRIMIDONE]", "Obs value": "Not Active"}
{"Compound": "Cc1cc(NS(=O)(=O)c2ccc(N)cc2)no1 [SULFAMETHOXAZOLE]", "Obs value": "Not Active"}

Quick one: IC50 for CC(C)(C)NCC(O)c1ccc(O)c(CO)c1 (stereo not given) [ALBUTEROL] ?
Not Active

The measured values listed here are drawn from ChEMBL document CHEMBL1909046.
